Origin of values: paper PMC6509210

test system: HSJD-DIPG-018 cells (HIST1H3B K27M, ACVR1 R258G); assay: Compound efficacy assay, CellTiter-Glo cell viability, HSJD-DIPG-018; format: cell-based, human; settings: HSJD-DIPG-018, HIST1H3B K27M, 8 days, mean ± SEM, n>=3
The following compounds are shown together with reported GI50 values.
Provide only the numeric value, understood in µM.

Solved cases below.
Which GI50 value is on record for COc1cc(-c2cc(-c3cccc(O)c3)cnc2N)cc(OC)c1OC ?
14.3

Now the compound c1cc(-c2cnn3cc(-c4ccc(N5CCNCC5)cc4)cnc23)c2cccnc2c1
3.22

What do you have for c1ccc2c(-c3cnn4cc(-c5ccc(N6CCNCC6)cc5)cnc34)ccnc2c1 ?
3.16

# next compound below
Suppose we examine the compound COc1cc(-c2cc(-c3ccc(N4CCNCC4)cc3)cnc2C)cc(OC)c1OC ; what GI50 value has been reported?
16.4
